TARGET UNDER TEST: GPR3 (Homo sapiens)
Construct: expressed in transfected cells; host or cells: CHO cells
METHOD NOTES: GPR3 antagonist functional cAMP assay (LANCE Ultra cAMP TR-FRET, CHO cells stably expressing GPR3)
Type: cell-based
CONDITION DESCRIPTION: CHO cells stably expressing GPR3, cAMP assay
pIC50: −log10 of the molar value.
PROPERTY LABEL: pIC50

MOLECULE	TARGET UNDER TEST	pIC50
CCn1cc(-c2nc3cnc([C@H](O)C(C)(C)O)cc3nc2N2CCC(Oc3ccc(F)cc3F)CC2)cn1 (single isomer, unassigned)	GPR3 (Homo sapiens)	4.52 to 6.00

Continue with the next molecule.
Using known records, supply pIC50 for CC(=O)N1CCc2nc(N3CCC(C(O)c4ccc(F)cc4F)CC3)c(-c3cnn(C)c3)nc2C1 (stereo not shown)
4.52 to 6.00

* * *

TARGET UNDER TEST: GPR3 (Homo sapiens, UniProt P46089)
Construct: expressed in transfected cells; host or cells: CHO cells
Sequence (P46089 whole entry, species assumed): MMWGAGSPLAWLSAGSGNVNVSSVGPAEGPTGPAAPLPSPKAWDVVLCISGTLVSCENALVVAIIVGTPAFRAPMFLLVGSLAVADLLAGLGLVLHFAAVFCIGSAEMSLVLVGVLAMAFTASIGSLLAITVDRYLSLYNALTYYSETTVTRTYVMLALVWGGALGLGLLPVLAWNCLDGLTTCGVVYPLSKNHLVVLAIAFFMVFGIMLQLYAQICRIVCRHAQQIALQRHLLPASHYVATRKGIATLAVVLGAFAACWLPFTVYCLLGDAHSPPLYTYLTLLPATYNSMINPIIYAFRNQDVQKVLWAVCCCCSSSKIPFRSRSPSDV
METHOD NOTES: GPR3 antagonist functional cAMP assay (LANCE Ultra cAMP TR-FRET, CHO cells stably expressing GPR3)
Assay type: cell-based
CONDITION DESCRIPTION: procedure of Example 24
The compounds listed here are annotated with their IC50.

For orientation, consider the following solved cases.
COMPOUND	IC50
CC(C)(O)[C@](C)(O)c1cc2nc(N3CCC(Oc4ccc(F)cc4F)CC3)c(-c3cnn(C(F)F)c3)nc2cn1 (single isomer, unassigned) [Compound 655]	1000 to 30000 nM
CC(=O)N1CCc2nc(N3CCN(Cc4ccc(OC(F)(F)F)cc4)CC3)c(-c3cnn(C)c3)nc2C1 [Compound 359]	1000 to 30000 nM
COC[C@@H](O)c1cc2nc(-c3cnn(C)c3)c(N3CCC(Oc4ccc(F)cc4F)CC3)nc2cn1 (single isomer, unassigned) [Compound 680]	100 to 1000 nM
CC(=O)N1CCc2nc(N3CCN(Cc4ccc(Cl)cc4F)CC3)c(-c3ccc(F)c(N)n3)nc2C1 [Compound 610]	1000 to 30000 nM
Cn1cc(-c2nc3c(nc2N2CC[C@H](Oc4ccc(F)cc4F)[C@H](F)C2)CCN(Cc2ccccc2)C3)cn1 (single isomer, unassigned) [Compound 333]	≥ 30000 nM

Using known records, supply IC50 for N#Cc1cc2nc(-c3cnn(CF)c3)c(N3CCN(Cc4ccc(F)cc4F)CC3)nc2cn1 [Compound 793]
1000 to 30000 nM

Using known records, supply IC50 for CC(=O)N1CCc2nc(N3CCC(Oc4cc(F)ccc4F)C3)c(-c3cnn(C)c3)nc2C1 (stereo not shown) [Compound 342]
100 to 1000 nM

* * *

TARGET UNDER TEST: GPR6 (Homo sapiens, UniProt P46095)
Construct: expressed in transfected cells; host or cells: CHO cells
Sequence (P46095 whole entry): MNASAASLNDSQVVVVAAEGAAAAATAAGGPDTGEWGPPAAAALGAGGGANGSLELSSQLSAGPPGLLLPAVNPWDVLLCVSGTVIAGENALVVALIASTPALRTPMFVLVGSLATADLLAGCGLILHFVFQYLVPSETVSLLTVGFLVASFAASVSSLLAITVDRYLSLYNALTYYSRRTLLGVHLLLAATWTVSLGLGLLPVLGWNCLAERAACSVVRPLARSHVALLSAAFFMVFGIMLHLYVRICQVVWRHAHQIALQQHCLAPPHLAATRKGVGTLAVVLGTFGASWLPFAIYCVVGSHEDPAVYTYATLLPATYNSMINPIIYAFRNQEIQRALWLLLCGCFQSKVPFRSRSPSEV
METHOD NOTES: GPR6 antagonist functional cAMP assay (LANCE Ultra cAMP TR-FRET, CHO cells stably expressing GPR6)
Assay type: cell-based
CONDITION DESCRIPTION: CHO cells stably expressing GPR6, cAMP assay (Example 24)
The compounds listed here are annotated with their IC50.

For orientation, consider the following solved cases.
COMPOUND	RESULT
O=C(C1CNC1)N1CCc2nc(N3CCC(Oc4ccc(F)cc4F)CC3)c(-c3cn[nH]c3)nc2C1	1000 to 30000 nM
CCn1cc(-c2nc3c(nc2N2CCC(Oc4ccc(F)cc4F)CC2)CCN(S(C)(=N)=O)C3)cn1 (centres unmarked)	100 to 1000 nM
COc1ccc(OC2CCN(c3nc4cnncc4nc3-c3cnn(C)c3)CC2)c(F)c1	100 to 1000 nM

Using known records, supply IC50 for "CC(=O)N1CCc2nc(N3CCC(Oc4ccc(F)cc4F)CC3)c(-c3c(C)n[nH]c3C)nc2C1"
≥ 30000 nM

Using known records, supply IC50 for "CCN1CCc2nc(N3CCC(Oc4ccc(F)cc4F)CC3)c(-c3cn[nH]c3)nc2C1"
100 to 1000 nM

Using known records, supply IC50 for "CC(=O)N1CCc2nc(N3CCC(Oc4ccc(F)cc4F)CC3)c(C3CCNCC3)nc2C1"
1000 to 30000 nM

Using known records, supply IC50 for O=C(CO)N1CCc2nc(N3CCC(Oc4ccc(F)cc4F)CC3)c(-c3cnn(C4CCCCO4)c3)nc2C1 (centres unmarked)
100 to 1000 nM

Using known records, supply IC50 for "CC(=O)N1CCc2nc(N3CCC(Oc4ccc(F)cc4F)CC3)c(-c3cccc(N4CCCC4)n3)nc2C1"
1000 to 30000 nM

* * *

The compounds listed here are annotated with their IC50.
TARGET UNDER TEST: GPR3 (Homo sapiens, UniProt P46089)
Construct: expressed in transfected cells; host or cells: CHO cells
METHOD NOTES: GPR3 antagonist functional cAMP assay (LANCE Ultra cAMP TR-FRET, CHO cells stably expressing GPR3)
Assay type: cell-based
CONDITION DESCRIPTION: procedure of Example 24

For orientation, consider the following solved cases.
COMPOUND	TARGET UNDER TEST	RESULT
CC(C)(O)[C@](C)(O)c1cc2nc(-c3cnn(CF)c3)c(N3CCN(Cc4ccc(F)cc4F)CC3)nc2cn1 (single isomer, unassigned)	GPR3 (Homo sapiens, UniProt P46089)	1000 to 30000 nM
CCn1cc(-c2nc3c(nc2N2CCC(Oc4ccc(F)cc4F)CC2)CCN(C[C@H](O)CO)C3)cn1	GPR3 (Homo sapiens, UniProt P46089)	1000 to 30000 nM
CCn1cc(-c2nc3cnc([C@@](C)(O)C(C)(C)O)cc3nc2N2CCN(Cc3ccc(F)cc3F)CC2)cn1 (single isomer, unassigned)	GPR3 (Homo sapiens, UniProt P46089)	1000 to 30000 nM
CC(=O)N1CCc2nc(N3CCN(Cc4c(F)cccc4F)CC3)c(-c3cnn(C)c3)nc2C1	GPR3 (Homo sapiens, UniProt P46089)	100 to 1000 nM
CC(=O)N1CCc2nc(N3CCN(Cc4ccc(Cl)cc4F)CC3)c(-c3cnn(C)c3)nc2C1	GPR3 (Homo sapiens, UniProt P46089)	1000 to 30000 nM

Using known records, supply IC50 for CC(C)(O)C(O)c1cc2nc(N3CCN(Cc4ccc(F)cc4F)CC3)c(-c3ccc(F)c(N)n3)nc2cn1 (stereo not shown)
100 to 1000 nM

Using known records, supply IC50 for CC(C)(O)[C@@H](O)c1cc2nc(N3CCN(Cc4cc(F)ccc4F)CC3)c(-c3cnn(CF)c3)nc2cn1 (single isomer, unassigned)
≥ 30000 nM

Using known records, supply IC50 for CC(=O)OC1CCCN(c2nc3c(nc2-c2cnn(C)c2)CN(Cc2ccccc2)CC3)C1 (stereo not shown)
1000 to 30000 nM

Using known records, supply IC50 for "CC(=O)N1CCc2nc(N3CCC(Cc4cc(F)ccc4F)CC3)c(-c3ccc(F)c(N)n3)nc2C1"
100 to 1000 nM

Using known records, supply IC50 for CC(C)(O)C(C)(O)c1cc2nc(-c3cnn(C(F)F)c3)c(N3CCN(Cc4ccc(F)cc4F)CC3)nc2cn1 (single isomer, unassigned) [Compound 662]
1000 to 30000 nM

Using known records, supply IC50 for "CCn1cc(-c2nc3cnc(C)cc3nc2N2CCC(Oc3ccc(F)cc3F)CC2)cn1"
1000 to 30000 nM

Using known records, supply IC50 for CO[C@@H](CO)c1cc2nc(N3CCC(Oc4ccc(F)cc4F)CC3)c(-c3cnn(C)c3)nc2cn1 (single isomer, unassigned)
1000 to 30000 nM

Using known records, supply IC50 for CC(C)(O)[C@H](O)c1cc2nc(-c3cnn(C4CC4)c3)c(N3CCN(Cc4ccccc4F)CC3)nc2cn1 (single isomer, unassigned)
1000 to 30000 nM

* * *

TARGET UNDER TEST: GPR6 (Homo sapiens, UniProt P46095)
Construct: expressed in transfected cells; host or cells: CHO cells
METHOD NOTES: GPR6 antagonist functional cAMP assay (LANCE Ultra cAMP TR-FRET, CHO cells stably expressing GPR6)
Format: cell-based
CONDITION DESCRIPTION: CHO cells stably expressing GPR6, cAMP assay
pIC50: −log10 of the molar value.
The compounds listed here are annotated with their pIC50.

For orientation, consider the following solved cases.
COMPOUND	RESULT
CCn1cc(-c2nc3c(nc2N2CCC(Oc4ccc(F)cc4F)CC2)CCN(C(=O)C(C)(O)CO)C3)cn1 (stereo not shown)	6.00 to 7.00
CC(C)(O)[C@H](O)c1cc2nc(N3CCC(Oc4ccc(F)cc4F)CC3)c(-c3cnn(C4CC4)c3)nc2cn1 (single isomer, unassigned)	6.00 to 7.00
CC(C)(O)C(O)c1cc2nc(-c3cnn(C4CC4)c3)c(N3CCC(Oc4ccc(F)cc4F)CC3)nc2cn1 (single isomer, unassigned) [Compound 591]	> 7.00
CCn1cc(-c2nc3cnc([C@H](O)C(C)(C)O)cc3nc2N2CCN(Cc3ccc(F)cc3F)CC2)cn1 (single isomer, unassigned)	> 7.00
COc1ccccc1CN1CCN(c2nc3c(nc2-c2cnn(C)c2)CN(C(C)=O)CC3)CC1	≤ 4.52

Write pIC50 of CC(=O)N1CCc2nc(N3CCC(Oc4ccc(F)cc4F)CC3)c(C3CCN(C4COC4)C3)nc2C1 (stereo not shown) ; system used: GPR6 (Homo sapiens, UniProt P46095)
4.52 to 6.00

Write pIC50 of "CC(=O)N1CCc2nc(N3CCN(Cc4cccnc4)CC3)c(-c3cnn(C)c3)nc2C1" ; system used: GPR6 (Homo sapiens, UniProt P46095)
≤ 4.52
